target or test system: T1, RANKL (human, UniProt O14788 140-317, limits assumed)
T1 construct: also called Rank ligand
T1 sequence (looked up): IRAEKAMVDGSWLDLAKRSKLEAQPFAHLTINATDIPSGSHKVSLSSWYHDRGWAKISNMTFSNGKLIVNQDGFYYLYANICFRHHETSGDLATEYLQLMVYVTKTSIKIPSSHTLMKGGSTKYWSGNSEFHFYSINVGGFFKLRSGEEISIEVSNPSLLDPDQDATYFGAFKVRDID
method: ELISA on coated RANKL, Fc-linked dimers; EC50 ratio to OPG(22-194).Fc wt; increase in binding (lower EC50)
measured property: RANKL fold change cf wt (fold)
Kindly answer with a numeric value in fold, unit omitted.

binder="OVP I115M (Fc fusion, Ribosome display selected; tested as C-terminal Fc-linked dimer with FLAG tag, from HEK 293 EBNA cells; signal peptide 1-21 processed; also called 1R17; not shown: human Fc domain of vector pAPEX-3.Fc; C-terminal FLAG tag) ETFPPKYLHYDEETSHQLLCDKCPPGTYLKQHCTAKWKTVCAPCPDHYYTDSWHTSDECLYCSPVCKELQYVKQECNRTHNRVCECKEGRYLEMEFCLKHRSCPPGFGVVQAGTPERNTVCKRCPDGFFSNETSSKAPCRKHTNCSVFGLLLTQKGNATHDNICSGNSESTQK" measured_property="RANKL fold change cf wt" observed=1.2

Prompt: Please look up its RANKL fold change cf wt: OVP I115M, L40S (Fc fusion, Tested as C-terminal Fc-linked dimer with FLAG tag, from HEK 293 EBNA cells; signal peptide 1-21 processed; also called R23; not shown: human Fc domain of vector pAPEX-3.Fc; C-terminal FLAG tag) ETFPPKYLHYDEETSHQLSCDKCPPGTYLKQHCTAKWKTVCAPCPDHYYTDSWHTSDECLYCSPVCKELQYVKQECNRTHNRVCECKEGRYLEMEFCLKHRSCPPGFGVVQAGTPERNTVCKRCPDGFFSNETSSKAPCRKHTNCSVFGLLLTQKGNATHDNICSGNSESTQK
Completion: 1.1

Prompt: Please look up its RANKL fold change cf wt: OVP N102D (Fc fusion, Tested as C-terminal Fc-linked dimer with FLAG tag, from HEK 293 EBNA cells; signal peptide 1-21 processed; not shown: human Fc domain of vector pAPEX-3.Fc; C-terminal FLAG tag) ETFPPKYLHYDEETSHQLLCDKCPPGTYLKQHCTAKWKTVCAPCPDHYYTDSWHTSDECLYCSPVCKELQYVKQECNRTHDRVCECKEGRYLEIEFCLKHRSCPPGFGVVQAGTPERNTVCKRCPDGFFSNETSSKAPCRKHTNCSVFGLLLTQKGNATHDNICSGNSESTQK
Completion: 1.1
